Test system: NCI-H23 lung
PROTOCOL_NOTES: NCI-60 one-dose screen, 48 h (100 = growth as untreated, 0 = no growth, -100 = all killed)
CONDITIONS_USED: 10 µM unless noted
Protocol: Growth inhibition of the NCI-H23 human Non-Small Cell Lung tumor cell line is measured as a screen for anti-cancer activity. Cells are grown in 96 well plates and exposed to the test compound for 48 hours. Compounds are tested at a single concentration, which is 10^-5 M for most compounds. The reported endpoint is percent growth (GI% or GIPRCNT), where numbers from 0 - 100% represent growth inhibition, and numbers from -100% - 0 represent cell death. […]
About 83,000 compounds went through this panel and 20% of them were active in at least one assay; those are over-represented in the sample as a whole.
RECORDED_ENDPOINT: growth (%)

{"COMPOUND": "O=[N+]([O-])c1cnc[nH]1", "MEASUREMENT_TARGET": "NCI-H23 lung", "RECORDED_ENDPOINT": "growth", "UOM": "%", "RESULT_NUMBER": 103}
{"COMPOUND": "COc1ccc(C2=CC(c3ccc(OC)c(OC)c3)c3c(c4ccccc4oc3=O)O2)cc1OC (stereo not given)", "MEASUREMENT_TARGET": "NCI-H23 lung", "RECORDED_ENDPOINT": "growth", "UOM": "%", "RESULT_NUMBER": 63.4}
{"COMPOUND": "COc1ccc(/C=C\\c2cc(OC)c(OC)c(OC)c2)c(NS(=O)(=O)c2ccc(F)cc2)c1O", "MEASUREMENT_TARGET": "NCI-H23 lung", "RECORDED_ENDPOINT": "growth", "UOM": "%", "RESULT_NUMBER": 27.4}
{"COMPOUND": "COC(=O)[C@@H](C)C[C@H](Cc1ccccc1)NC(=O)c1csc([C@@H](C[C@H](C(C)C)N(C)C(=O)[C@@H](NC(=O)[C@H]2CCCCN2C)C(C(F)(F)F)C(F)(F)F)OC(C)=O)n1", "MEASUREMENT_TARGET": "NCI-H23 lung", "RECORDED_ENDPOINT": "growth", "UOM": "%", "RESULT_NUMBER": 44.8}
{"COMPOUND": "O=C(CC1(O)C(=O)N(Cc2ccccc2)c2ccc(F)cc21)c1ccc(C(=O)NCC2CCC3(CC2)OOC2(CCCCC2)OO3)cc1 (stereo not given)", "MEASUREMENT_TARGET": "NCI-H23 lung", "RECORDED_ENDPOINT": "growth", "UOM": "%", "RESULT_NUMBER": -70.8}

----------
Test system: UACC-257 melanoma
PROTOCOL_NOTES: NCI-60 one-dose screen, 48 h
CONDITIONS_USED: 10 µM unless noted
Compounds without any hit were thinned out: in the full panel of roughly 83,000, 20% have a hit. Calls of active or inactive are those of the source. How the source made its calls: active means growth percent below 10; inactive means the rest.
Labels: active, inactive

{"COMPOUND": "CC(=O)O[C@H]1CC[C@]2(C)[C@H]3CC[C@]4(C)[C@@H](OC(C)=O)CC[C@H]4[C@@H]3[C@@H](C)[C@]2(O)C1", "GROUP_LABEL": "inactive"}
{"COMPOUND": "CCOC(=O)CCC(NC(=O)C(Cc1ccc(N(CCCl)CCCl)cc1)NC=O)C(=O)OCC (configuration not stated)", "GROUP_LABEL": "active"}
{"COMPOUND": "Brc1ccc2c(c1)c(-c1nc(-c3c[nH]c4ncccc34)cs1)cn2CCN1CCCCC1", "GROUP_LABEL": "inactive"}
{"COMPOUND": "COC(=O)[C@@]1(C)CC[C@]2(C)CC[C@]3(C)C4=CC(=O)c5c(cc(O)c(O)c5C)[C@]4(C)CC[C@@]3(C)[C@@H]2C1", "GROUP_LABEL": "inactive"}
{"COMPOUND": "COc1ccc(/C=C\\c2cc(OC)c(OC)c(OC)c2)cc1OCC(=O)Nc1nc2ccc(C(F)(F)F)cc2s1", "GROUP_LABEL": "inactive"}
{"COMPOUND": "Nc1ccc(OCCNS(=O)(=O)c2cccc(S(=O)(=O)F)c2)c(Cl)c1", "GROUP_LABEL": "inactive"}
{"COMPOUND": "COc1cccc(C=NC(Cc2cnc[nH]2)C(=O)O)c1O (configuration not stated)", "GROUP_LABEL": "inactive"}
{"COMPOUND": "CC(=O)O[C@H]1CC[C@@]2(C)C(=CC[C@H]3[C@@H]4C[C@@H](N5CC5)[C@H](C(C)=O)[C@@]4(C)CC[C@@H]32)C1", "GROUP_LABEL": "inactive"}
{"COMPOUND": "CNC(=O)Oc1ccc2c(c1)OCO2", "GROUP_LABEL": "inactive"}
{"COMPOUND": "CC(C)=CCC/C(C)=C/C=N\\N=C(/N)N[N+](=O)[O-]", "GROUP_LABEL": "inactive"}
{"COMPOUND": "CCn1c2ccccc2c2cc(C(=O)c3ccc(C)c4ccccc34)ccc21", "GROUP_LABEL": "inactive"}
{"COMPOUND": "O=[N+]([O-])c1ccc(OP(=O)(CCl)N(CCCl)CCCl)cc1 (configuration not stated)", "GROUP_LABEL": "inactive"}
{"COMPOUND": "Nc1ccc2c(c1)Cc1cc(Br)ccc1-2", "GROUP_LABEL": "inactive"}
{"COMPOUND": "COc1ccc(/C=C\\c2cc(OC)c(OC)c(OC)c2)c(NS(=O)(=O)c2ccc(C)cc2)c1O", "GROUP_LABEL": "inactive"}
{"COMPOUND": "CNC(=O)Oc1ccc(N(C)C)cc1C(C)C", "GROUP_LABEL": "inactive"}
{"COMPOUND": "CC(=O)O[C@H](C[C@H](C(C)C)N(C)C(=O)[C@@H](NC(=O)[C@H]1CCCN1C)C(C)C)c1nc(C(=O)N[C@@H](Cc2ccccc2)C[C@H](C)C(=O)O)c(C)s1", "GROUP_LABEL": "inactive"}
{"COMPOUND": "CC(C)(C)N1CC1C#N (configuration not stated)", "GROUP_LABEL": "inactive"}
{"COMPOUND": "COC(=O)[C@@H](C)C[C@H](Cc1ccc2ccccc2c1)NC(=O)c1csc([C@@H](C[C@H](C(C)C)N(C)C(=O)[C@@H](NC(=O)[C@H]2CCCCN2C)C(C)C)OC(C)=O)n1", "GROUP_LABEL": "inactive"}
{"COMPOUND": "COc1cccc2c1c(C(=O)c1ccco1)cn2Cc1ccc(F)cc1", "GROUP_LABEL": "inactive"}
{"COMPOUND": "CC(=O)Nc1nc2c(s1)CC[C@@]1(C)C2=CC[C@H]2[C@@H]3CC[C@H](O)[C@@]3(C)CC[C@@H]21", "GROUP_LABEL": "inactive"}
{"COMPOUND": "O=C([O][Hg][c]1ccccc1)c1ccccc1", "GROUP_LABEL": "active"}
{"COMPOUND": "O=[N+]([O-])c1cc(I)cc([N+](=O)[O-])c1", "GROUP_LABEL": "inactive"}
{"COMPOUND": "CN1CCC(O)(c2ccc(F)cc2)C(C(=O)c2ccc(F)cc2)C1 (configuration not stated)", "GROUP_LABEL": "inactive"}
{"COMPOUND": "O=C1C2CCC1C(N1CCCC1)CC2 (configuration not stated)", "GROUP_LABEL": "inactive"}
{"COMPOUND": "N#C[S-].[Au+].c1ccc(CN2[CH-]N(Cc3ccccc3)C(c3ccccc3)=C2c2ccccc2)cc1", "GROUP_LABEL": "active"}
{"COMPOUND": "COc1cc(/C=N/C2=C(C#N)C(c3ccco3)c3c(c4cc(C)ccc4oc3=O)O2)cc(OC)c1OC (configuration not stated)", "GROUP_LABEL": "inactive"}
{"COMPOUND": "O=C1C(N2CC2)=C(N2CC2)C(=O)C(N2CC2)=C1N1CC1", "GROUP_LABEL": "active"}
{"COMPOUND": "Oc1ccc2c3c1OC1[C@@H](O)CC[C@@]4(O)[C@@H](C2)N(CC2CCC2)CC[C@]314 (some centres not stated)", "GROUP_LABEL": "inactive"}
{"COMPOUND": "CN(C)CCCOc1ccc2c(c1)c(C(=O)C(=O)NCCO)cn2Cc1ccccc1", "GROUP_LABEL": "inactive"}
{"COMPOUND": "O=C(CC1(O)C(=O)N(Cc2ccccc2)c2ccccc21)c1ccc(C(=O)NCC2CCC3(CC2)OOC2(CCCCC2)OO3)cc1 (configuration not stated)", "GROUP_LABEL": "active"}
{"COMPOUND": "O=C1OCC2=C1C(c1ccccc1)c1cc3c(cc1N2)OCO3 (configuration not stated)", "GROUP_LABEL": "inactive"}
{"COMPOUND": "c1cnc2[nH]cc(-c3csc(-c4cn(CCCCN5CCOCC5)c5ccccc45)n3)c2c1", "GROUP_LABEL": "inactive"}
{"COMPOUND": "Cc1c(O)c(CN(CCCl)CCCl)cc(CN(CCCl)CCCl)c1O", "GROUP_LABEL": "inactive"}
{"COMPOUND": "CC[C@H](C)[C@H](NC(=O)C12C3C4C1C1C2C3C41NC(C)=O)C(=O)N(C)[C@H](C[C@@H](OC(C)=O)c1nc(C(=O)N[C@@H](Cc2ccccc2)C[C@H](C)C(=O)OC)cs1)C(C)C (some centres not stated)", "GROUP_LABEL": "inactive"}
{"COMPOUND": "CN[C@]1(c2ccccc2Cl)CCCC[C@H]1NCCCN1CCN(C)CC1", "GROUP_LABEL": "inactive"}
{"COMPOUND": "C[C@]12CCc3sc(-c4ccccc4O)nc3C1=CC[C@@H]1[C@@H]2CC[C@]2(C)C(=O)CC[C@@H]12", "GROUP_LABEL": "inactive"}
{"COMPOUND": "CCN(CCO)C(Cc1ccccc1)c1ccccc1 (configuration not stated)", "GROUP_LABEL": "inactive"}
